Numbers sourced from patent US12599672B2.

Some compounds, each annotated with its measured DC50.
# Target or system: KRAS (Homo sapiens, UniProt P01116)
# Construct: endogenous in cells; host or cells: KE39 (KRAS amplified) cells
# Sequence (P01116 1-188 isoform P01116-2): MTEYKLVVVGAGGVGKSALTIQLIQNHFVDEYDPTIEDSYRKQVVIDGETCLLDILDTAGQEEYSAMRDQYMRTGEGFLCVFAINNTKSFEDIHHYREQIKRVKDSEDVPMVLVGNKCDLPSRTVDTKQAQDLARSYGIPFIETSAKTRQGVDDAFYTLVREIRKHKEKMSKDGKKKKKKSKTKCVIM
# Protocol summary: KRASamp MSD assay
# Format: cell-based
# Condition label: KE39 (KRAS amplified) cells, treated with test compounds for 24 hr, MSD readout of KRAS degradation

| Compound | DC50 |
| --- | --- |
| CCc1c(F)ccc2cc(O)cc(-c3ncc4c(N5CCC[C@@](C)(O)C5)nc(OC[C@@]56CCCN5[C@H](COC(=O)N5CCC(CC7CCN(c8ccc9c(c8)n(C)c(=O)n9C8CCC(=O)NC8=O)CC7)CC5)CC6)nc4c3F)c12 (some centres unmarked) [Compound 98] | < 1 nM |

Turning to the following compound.
# lookup: DC50 of CCc1cccc2cc(O)cc(-c3ncc4c(N5CCC[C@@](C)(O)C5)nc(OC[C@@]56CCCN5[C@H](COC(=O)N5CCC(CN7CCC(c8ccc9c(c8)n(C)c(=O)n9C8CCC(=O)NC8=O)CC7)CC5)CC6)nc4c3F)c12 (some centres unmarked) [Compound 145] 1 to 10 nM

###

# Target or system: KRAS G12V (Homo sapiens, UniProt P01116, G12V)
# Construct: SW620-KRAS (G12V)-HiBit-KI cell (Pharmaron); host or cells: SW620-KRAS (G12V)-HiBit-KI cells (HiBiT knock-in at the endogenous KRAS locus)
# Sequence (P01116 1-188 isoform P01116-2 G12V): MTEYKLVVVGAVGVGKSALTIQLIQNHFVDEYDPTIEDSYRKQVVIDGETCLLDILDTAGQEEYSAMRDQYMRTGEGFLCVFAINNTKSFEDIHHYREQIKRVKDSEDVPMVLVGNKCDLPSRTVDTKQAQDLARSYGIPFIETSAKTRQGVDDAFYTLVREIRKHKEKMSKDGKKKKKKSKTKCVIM
# Protocol summary: KRAS G12V HiBit assay
# Format: cell-based
# Condition label: SW620-KRAS (G12V)-HiBit-KI cells, compound treatment for 24 hours, class symbols
Measured endpoint: DC50

The cases that follow already have their DC50 on record.
| Compound | Measured endpoint | Result |
| --- | --- | --- |
| C#Cc1c(F)ccc2cccc(-c3ncc4c(N5CCC[C@@](C)(O)C5)nc(OC[C@]56CCCN5[C@@H](COC(=O)N5CCC(CN7CCC(c8ccc9c(c8)n(C)c(=O)n9C8CCC(=O)NC8=O)CC7)CC5)CC6)nc4c3F)c12 (stereo partly shown) [Compound 131] | DC50 | > 100 nM |
| CCc1c(F)ccc2cc(O)cc(-c3ncc4c(N5CCC[C@@](C)(O)C5)nc(OC[C@@]56CCCN5[C@H](COC(=O)N5CC7(CN(CC8CCN(c9ccc%10c(c9)n(C)c(=O)n%10C9CCC(=O)NC9=O)CC8)C7)C5)CC6)nc4c3F)c12 (stereo partly shown) [Compound 462] | DC50 | < 10 nM |
| C#Cc1c(F)ccc2cc(O)cc(-c3ncc4c(N5CCCCC5)nc(OC[C@@]56CCCN5[C@H](COC(=O)N5CCC(CN7CCC(c8ccc9c(c8)n(C)c(=O)n9C8CCC(=O)NC8=O)CC7)CC5)CC6)nc4c3F)c12 (stereo partly shown) [Compound 122] | DC50 | < 10 nM |

Please examine the following record next.
Consider the compound shown here: C#Cc1c(F)ccc2cc(O)cc(-c3ncc4c(N5CCC[C@@](C)(O)C5)nc(OCC5(CN6CCN(Cc7cccc8c7n(C)c(=O)n8C7CCC(=O)NC7=O)CC6)CC5)nc4c3F)c12 (stereo partly shown) [Compound 63] What is its recorded DC50? > 100 nM

###

# Target or system: KRAS G12D (Homo sapiens, UniProt P01116, G12D)
# Construct: AsPc-1-KRAS (G12D)-HiBit-KI cell (Pharmaron); host or cells: AsPc-1-KRAS (G12D)-HiBit-KI cells (HiBiT knock-in at the endogenous KRAS locus)
# Sequence (P01116 1-188 isoform P01116-2 G12D): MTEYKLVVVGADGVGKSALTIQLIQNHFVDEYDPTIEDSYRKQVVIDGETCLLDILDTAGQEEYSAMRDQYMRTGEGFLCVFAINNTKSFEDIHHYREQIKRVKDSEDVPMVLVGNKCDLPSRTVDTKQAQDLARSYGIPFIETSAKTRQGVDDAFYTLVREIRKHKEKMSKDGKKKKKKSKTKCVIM
# Protocol summary: KRAS G12D HiBit assay
# Format: cell-based
# Condition label: AsPc-1-KRAS (G12D)-HiBit-KI cell, compound treatment for 24 hours, absolute DC50; numeric bounds given in place of class symbols
Each entry below carries its reported DC50.

# annotated cases, reported DC50 shown
| Molecule | Result |
| --- | --- |
| C#Cc1c(F)ccc2cc(O)cc(-c3ncc4c(N5CCC[C@@](C)(O)C5)nc(OC[C@@]56CCCN5[C@H](COC(=O)N5CCCC7(C5)CN(C5CCN(c8ccc9c(c8)n(C)c(=O)n9C8CCC(=O)NC8=O)CC5)C7)CC6)nc4c3F)c12 (stereo partly drawn) | > 100 nM |
| CCc1c(F)ccc2cc(O)cc(-c3ncc4c(N5CCC[C@@](C)(O)C5)nc(OC[C@]56CCCN5[C@H](COC(=O)N5CCC(CCCOc7ccc8c(c7)n(C)c(=O)n8C7CCC(=O)NC7=O)CC5)CC6)nc4c3F)c12 (stereo partly drawn) | > 100 nM |
| C#Cc1c(F)ccc2cc(O)cc(-c3ncc4c(N5CCC[C@@](C)(O)C5)nc(OC[C@@]56CCCN5[C@H](COC(=O)N5CCC(C7CCN(c8ccc9c(c8)n(C)c(=O)n9C8CCC(=O)NC8=O)CC7)CC5)CC6)nc4c3F)c12 (stereo partly drawn) | > 100 nM |
| CCc1c(F)ccc2cc(O)cc(-c3ncc4c(N5CCC(F)(F)CC5)nc(OC[C@@]56CCCN5[C@H](COC(=O)N5CCC7(CC5)CC(N5CCC(c8ccc9c(c8)n(C)c(=O)n9C8CCC(=O)NC8=O)CC5)C7)CC6)nc4c3F)c12 (stereo partly drawn) | > 100 nM |
| CCc1c(F)ccc2cc(O)cc(-c3ncc4c(N5CCC[C@@](C)(O)C5)nc(OC[C@@]56CCCN5[C@@H](COC(=O)N5CCC(CCOc7ccc8c(c7)n(C)c(=O)n8C7CCC(=O)NC7=O)CC5)CC6)nc4c3F)c12 (stereo partly drawn) | > 100 nM |

Record C#Cc1c(F)ccc2cc(O)cc(-c3ncc4c(N5CCC[C@@](C)(O)C5)nc(OC[C@@]56CCCN5[C@H](COC(=O)N5CC(N7CCC(N8CCC(c9ccc%10c(c9)n(C)c(=O)n%10C9CCC(=O)NC9=O)CC8)CC7)C5)CC6)nc4c3F)c12 (stereo partly drawn) : what is its DC50 with KRAS G12D (Homo sapiens, UniProt P01116, G12D)? > 100 nM

Query the reported DC50 for KRAS G12D (Homo sapiens, UniProt P01116, G12D); item: C#Cc1c(F)ccc2cc(O)cc(-c3ncc4c(N5CCC[C@@](C)(O)C5)nc(OC[C@@]56CCCN5[C@H](COC(=O)N5CCC7(CC5)CCN7C5CCN(c7ccc8c(c7)n(C)c(=O)n8C7CCC(=O)NC7=O)CC5)CC6)nc4c3F)c12 (stereo partly drawn) > 100 nM

What is its DC50 for KRAS G12D (Homo sapiens, UniProt P01116, G12D)? Entry: C#Cc1c(F)ccc2cccc(-c3ncc4c(N5CCC[C@@](C)(O)C5)nc(OCC5(CN6CCC(CN7CCN(c8ccc9c(c8)C(=O)N(C8CCC(=O)NC8=O)C9=O)CC7)CC6)CC5)nc4c3F)c12 (stereo partly drawn) > 160 nM

Recorded DC50 for CCc1c(F)ccc2cc(O)cc(-c3ncc4c(N5CCC[C@@](C)(O)C5)nc(OC[C@@]56CCCN5[C@@H](COC(=O)N5CCC(COc7ccc8c(c7)n(C)c(=O)n8C7CCC(=O)NC7=O)CC5)CC6)nc4c3F)c12 (stereo partly drawn) with KRAS G12D (Homo sapiens, UniProt P01116, G12D), please? > 100 nM
